Where do these numbers come from? They come from patent US7666868B2.

# key: entry, value: melting point

Consider the following illustrative entries.
{"Compound": "Cn1cc(-c2cccc(S(=O)(=O)n3ccc(/C=C/C(=O)Nc4ccccc4N)c3)c2)cn1 [Compound 15]", "melting point": "193 to 197 °C"}
{"Compound": "O=C(/C=C/c1ccn(S(=O)(=O)c2cc(-c3ccccc3)ccc2CCCN2CCOCC2)c1)NO [Compound 45]", "melting point": "215 to 217 °C"}
{"Compound": "Nc1ccccc1NC(=O)/C=C/c1ccn(S(=O)(=O)C2(CN3CCOCC3)C=CC(c3ccccc3)=CC2)c1 (stereo not shown) [Compound 107]", "melting point": "196 to 201 °C"}

Fill in melting point for record O=C(/C=C/c1ccn(S(=O)(=O)c2cc(-c3ccccc3)ccc2OCCCN2CCOCC2)c1)NO [Compound 38]
167 to 172 °C

###

# key: entry, value: melting point

Consider the following illustrative entries.
{"Compound": "CN(C)CC1(S(=O)(=O)n2ccc(/C=C/C(=O)Nc3ccccc3N)c2)C=CC(c2ccccc2)=CC1 (stereo not shown) [Compound 47]", "Measurement kind": "melting point", "Test value": "211 to 216 °C"}
{"Compound": "NCC1(S(=O)(=O)n2ccc(/C=C/C(=O)Nc3ccccc3N)c2)C=CC(c2ccccc2)=CC1 (stereo not shown) [Compound 93]", "Measurement kind": "melting point", "Test value": "278 to 280 °C"}
{"Compound": "Cc1ccc(S(=O)(=O)NC2(S(=O)(=O)n3ccc(/C=C/C(=O)NO)c3)C=CC(c3ccccc3)=CC2)cc1 (stereo not shown) [Compound 29]", "Measurement kind": "melting point", "Test value": "119 to 126 °C"}

Okay, now this compound:
Fill in melting point for record O=C(/C=C/c1ccn(S(=O)(=O)c2cc(-c3ccccc3)ccc2CNC2CC2)c1)NO [Compound 63]
118 to 119 °C
